Test system: Mythimna separata
measurement.description: Larvicidal activity against Oriental armyworm at 0.5 mg/L
Type: functional
Please go through the items and note down their Activity.
Kindly answer with a numeric value in %, unit omitted.

Given CC(C)O/N=C/c1ccc(NC(=O)NC(=O)c2c(F)cccc2F)cc1 , state its recorded Activity.
50

CC(C)O/N=C/c1ccc(NC(=O)NC(=O)c2c(F)cccc2F)c(Cl)c1 ?
0

Try this compound next: C/C(=N\OC(C)C)c1ccc(NC(=O)NC(=O)c2c(F)cccc2F)cc1
0

Please give the result for CC(C)(C)O/N=C/c1ccc(NC(=O)NC(=O)c2c(F)cccc2F)c(F)c1 too.
90

Record: CC(C)O/N=C/c1ccc(NC(=O)NC(=O)c2c(F)cccc2F)cc1Cl
0

Would you kindly repeat that for CC(C)O/N=C/c1ccc(NC(=O)NC(=O)c2c(F)cccc2F)c(F)c1 ?
90

What would you report for O=C(NC(=O)c1c(F)cccc1F)Nc1ccc(CO/N=C(/c2ccc(Cl)cc2)C2CC2)cc1 ?
0

Also CC(C)C(=O)O/N=C/c1ccc(NC(=O)NC(=O)c2c(F)cccc2F)cc1 , if possible.
0
